- System: J774 murine macrophage cells
- Procedure details: Alamar Blue J774 murine macrophage viability assay
- Type: cell-based

{"Item smiles": "COc1ccc(C(=O)c2c(C)n(CCN3CCOCC3)c3cc(I)ccc23)cc1", "Subject of test": "J774 murine macrophage cells", "J774 viability (summary in words)": "inhibit"}
{"Item smiles": "Cc1c(C(=O)c2cccc3ccccc23)c2cccc3c2n1[C@H](CN1CCOCC1)CO3", "Subject of test": "J774 murine macrophage cells", "J774 viability (summary in words)": "do not affect"}
{"Item smiles": "Cc1c(C(=O)NN2CCCCC2)nn(-c2ccc(Cl)cc2Cl)c1-c1ccc(I)cc1", "Subject of test": "J774 murine macrophage cells", "J774 viability (summary in words)": "inhibit"}
{"Item smiles": "CCCCCCC(C)(C)c1ccc([C@@H]2C[C@H](O)CC[C@H]2CCCO)c(O)c1", "Subject of test": "J774 murine macrophage cells", "J774 viability (summary in words)": "do not affect"}

* * *

- Test system: osteoclasts
- Procedure details: cells
- Type: cell-based, mice
- Condition details: Mus musculus, Osteoclast; TRAcP MNC and resorbed area, n=3; read-out: IC50, inhibition of osteoclast function and bone resorption
Quantity name: IC50

{"Compound": "Cc1ccc(Cn2nc(C(=O)NC3C4(C)CCC(C4)C3(C)C)cc2-c2ccc(Cl)c(C)c2)cc1 (stereo not shown) [SR144528]", "Subject of test": "osteoclasts", "Recorded measurement": "~5 µM"}

Values from patent US20060172019A1
